Target: endogenous NAMPT (Homo sapiens, UniProt P43490)
Construct: stimulate the endogenous NAMPT in a native cellular environment; endogenous in cells; host or cells: SH-SY5Y neuroblastoma cells
Test: Cellular NAD+ modulation assay in neuroblastoma SH-SY5Y cells
Assay type: cell-based
Conditions: Table B; SH-SY5Y cells, cellular NAD levels, doxorubicin, 40 hours; read-out: EC50
Measurement label: log10 EC50 (log10 of the value in nM)
Heads up, the numbers here are log10 of EC50 in nM units.

{"columns": ["Compound", "log10 EC50"],
 "data": [
  ["COc1ccc(CNC(=O)NC2CC3(C2)CC(NC(=O)OC(C)(C)C)C3)cc1 (centres unmarked)", 3.67],
  ["Cc1ccc(C(=O)N2CC3(CC(NC(=O)NCc4ccc(Cl)cc4)C3)C2)cc1", 2.70],
  ["COc1ccc(CNC(=O)NC2CC3(C2)CC(C(=O)N2CCOc4ccccc42)C3)cc1 (centres unmarked)", 2.90],
  ["Cc1ccc(C(=O)NC[C@H]2C[C@]3(C2)C[C@@H](NC(=O)NCc2ccc(Cl)cc2)C3)cn1 (some centres unmarked)", 2.95],
  ["Cc1cccc(C(=O)N2CC[C@]3(C2)C[C@@H](NC(=O)NCc2ccc(Cl)cc2)C3)c1", 2.90],
  ["Cc1ccc(C(=O)N2CC3(CC(NC(=O)NCc4ccncc4)C3)C2)cc1", 3.95],
  ["CN(C(=O)CCCCCNC(=O)NCc1cnco1)c1ccccc1F", 2.90]
]}

Then this compound:
INPUT: Look up log10 EC50 for this compound: CC(C)(C)OC(=O)N1CCC2(CC1)CC2CNC(=O)NCc1ccc(C(N)=O)cc1 (centres unmarked)
OUTPUT: 3.92

* * *

Biological target: human NAMPT (Homo sapiens, UniProt P43490)
Sequence (P43490 whole entry): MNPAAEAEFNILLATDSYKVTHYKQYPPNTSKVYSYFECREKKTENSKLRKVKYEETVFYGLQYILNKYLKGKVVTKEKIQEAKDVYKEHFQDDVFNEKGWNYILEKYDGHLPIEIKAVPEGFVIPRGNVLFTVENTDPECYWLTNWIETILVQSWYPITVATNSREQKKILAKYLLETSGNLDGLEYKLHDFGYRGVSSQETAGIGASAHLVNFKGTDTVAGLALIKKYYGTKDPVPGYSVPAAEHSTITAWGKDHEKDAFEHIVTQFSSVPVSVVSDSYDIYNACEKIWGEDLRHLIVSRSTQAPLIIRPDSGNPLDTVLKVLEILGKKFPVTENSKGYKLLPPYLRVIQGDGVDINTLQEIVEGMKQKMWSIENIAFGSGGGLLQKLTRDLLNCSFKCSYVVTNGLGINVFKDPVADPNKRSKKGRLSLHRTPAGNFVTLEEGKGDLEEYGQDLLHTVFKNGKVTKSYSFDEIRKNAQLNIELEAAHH
Assay: Human recombinant enzyme assay (NMN fluorescence biochemical assay, activation of NAMPT)
Settings: read-out: EC50 Human; Table A; human recombinant NAMPT, NMN formation, 60 min
Measurement label: EC50 (µM)
Only the number, expressed in µM, is required.

INPUT: Quick check: EC50 of COC(=O)C1CC2(CC(NC(=O)NCc3ccc(Cl)cc3)C2)C1 (stereo not shown) ?
OUTPUT: 39.3

* * *

Overview of recorded EC50 for various molecules
Biological target: human NAMPT (Homo sapiens, UniProt P43490)
Assay: Human recombinant enzyme assay (NMN fluorescence biochemical assay, activation of NAMPT)
Settings: Table A; human recombinant NAMPT, NMN formation, 60 min; read-out: EC50 Human
Experimental: Compounds described herein were assayed for their ability to stimulate the synthesis of nicotinamide mononucleotide (NMN) by the enzyme NAMPT. […] Dose responses were measured using an assay to detect the formation of nicotinamide mono-nucleotide. […] The plates were read for fluorescence (Excitation/Emission=355 nm/460 nm) using an EnVision plate reader after 40 mins of incubation at ambient temperature.
Kindly answer with a numeric value in µM, unit omitted.

The examples below pair each entry with its known result.
{"columns": ["Molecule", "Unit abbreviation", "EC50"],
 "data": [
  ["O=C1CC(C(=O)NCC2CC3(C2)CC(NC(=O)NCc2ccc(Cl)cc2)C3)CCN1 (centres unmarked) [Compound 252]", "µM", 9.1],
  ["O=C(NCCCCC1CCN(C(=O)C2CCOCC2)CC1)NCc1ccc(Cl)cc1 [Compound 300]", "µM", 6.5],
  ["COc1ccc(CNC(=O)NC2CC3(CC(CN4CCCc5c(F)cc(F)cc54)C3)C2)cc1 (centres unmarked) [Compound 127]", "µM", 33.1],
  ["Cc1ccncc1C(=O)NC1CC2(CC(NC(=O)NCc3ccc(Cl)cc3)C2)C1 (centres unmarked) [Compound 205]", "µM", 23.6]
]}

INPUT: Requested read-out: EC50. Entry: O=C(NCc1ccc(Cl)cc1)NC1CC2(CC(CC(=O)N3CCC[C@H]3CO)C2)C1 (some centres unmarked) [Compound 235]
OUTPUT: 7.5

INPUT: What would you report for O=C(NCCCCC1CCN(C(=O)c2cccnc2)CC1)NCc1ccc(Cl)cc1 [Compound 289] ?
OUTPUT: 7.7

INPUT: Ok, now COc1ccc(CNC(=O)NC2CC3(C2)CN(C(=O)c2cccc(N4CCCCC4)c2)C3)cc1 [Compound 190]
OUTPUT: 34

INPUT: Lookup [2H]C([2H])(CCCC1CCN(C(=O)c2ccccc2)CC1)NC(=O)NCc1cnco1 [Compound 293]
OUTPUT: 1.5
